- Species: Rattus norvegicus
- MEASUREMENT_DESCRIPTION: DrugMatrix - Regimen: Daily Repeat
- Format: toxicity, organism-based, Sprague-Dawley
- Set-up: regimen Daily Repeat, gender Male, age 6-8 weeks
- CONDITION_DESCRIPTION: in vivo, po, 0 mg/kg, 72 h, tissue Plasma, route oral GAVAGE, dose level Control, time 3 day, vehicle 100 % WATER
MEASURED_ENDPOINT: CREATINE PHOSPHOKINASE (u/L)
Reply numerically in u/L, unit not repeated.

Some solved entries appear below for comparison.
{"MOLECULE": "O=C1NC(=O)C(c2ccccc2)(c2ccccc2)N1", "CREATINE PHOSPHOKINASE, u/L": 263.67}
{"MOLECULE": "COc1ccc(C(CN(C)C)C2(O)CCCCC2)cc1 (stereo not given)", "CREATINE PHOSPHOKINASE, u/L": 285}
{"MOLECULE": "CNCCC=C1c2ccccc2CCc2ccccc21", "CREATINE PHOSPHOKINASE, u/L": 263.67}
{"MOLECULE": "Fc1ccc([C@@H]2CCNC[C@H]2COc2ccc3c(c2)OCO3)cc1", "CREATINE PHOSPHOKINASE, u/L": 576.83}
{"MOLECULE": "C[C@]12Cc3c[nH]nc3C[C@@H]1CC[C@@H]1[C@@H]2CC[C@@]2(C)[C@H]1CC[C@]2(C)O", "CREATINE PHOSPHOKINASE, u/L": 576.83}
{"MOLECULE": "NCC1(CC(=O)O)CCCCC1", "CREATINE PHOSPHOKINASE, u/L": 600.83}
{"MOLECULE": "CC(CCc1ccccc1)NCC(O)c1ccc(O)c(C(N)=O)c1 (stereo not given)", "CREATINE PHOSPHOKINASE, u/L": 272.17}
{"MOLECULE": "CC1COc2c(N3CCN(C)CC3)c(F)cc3c(=O)c(C(=O)O)cn1c23 (stereo not given)", "CREATINE PHOSPHOKINASE, u/L": 1308.83}
{"MOLECULE": "Cc1cc(NS(=O)(=O)c2ccc(N)cc2)no1", "CREATINE PHOSPHOKINASE, u/L": 285}

# evaluate next
Req: Tell me the measured CREATINE PHOSPHOKINASE of COc1cccc(C2(O)CCCCC2CN(C)C)c1 (stereo not given) , please.
Resp: 576.83

* * *

- Organism: Rattus norvegicus
- MEASUREMENT_DESCRIPTION: DrugMatrix - Regimen: Daily Repeat
- Type: toxicity, organism-based, Sprague-Dawley
- Design: regimen Daily Repeat, gender Male, age 6-8 weeks
- CONDITION_DESCRIPTION: in vivo, po, 0 mg/kg, 72 h, tissue Plasma, route oral GAVAGE, dose level Control, time 3 day, vehicle 100 % WATER
MEASURED_ENDPOINT: GLUCOSE (mg/dL)
The reply should be a number in mg/dL, with the unit left off.

# count of solved cases: 5
{"COMPOUND": "Cn1cnc([N+](=O)[O-])c1Sc1ncnc2nc[nH]c12", "GLUCOSE (mg/dL)": 173.17}
{"COMPOUND": "Fc1ccc([C@@H]2CCNC[C@H]2COc2ccc3c(c2)OCO3)cc1", "GLUCOSE (mg/dL)": 152.67}
{"COMPOUND": "CN1CCN(C(=O)OC2c3nccnc3C(=O)N2c2ccc(Cl)cn2)CC1 (centres undefined)", "GLUCOSE (mg/dL)": 173.83}
{"COMPOUND": "COc1cc2c(N3CCN(C(=O)Nc4ccc(OC(C)C)cc4)CC3)ncnc2cc1OCCCN1CCCCC1", "GLUCOSE (mg/dL)": 153.33}
{"COMPOUND": "NNC(=O)c1ccncc1", "GLUCOSE (mg/dL)": 178.5}

Req: Please give the measured GLUCOSE for this compound: `O=C1NC(=O)C(c2ccccc2)(c2ccccc2)N1`
Resp: 169.33

Req: Query: GLUCOSE; subject: `CC1(C)S[C@@H]2[C@H](NC(=O)[C@H](N)c3ccc(O)cc3)C(=O)N2[C@H]1C(=O)O`
Resp: 158.33

Req: Need GLUCOSE of `CN1CCC[C@H]1c1cccnc1` , thanks.
Resp: 187.5

Req: # input compound: `C[C@]12Cc3c[nH]nc3C[C@@H]1CC[C@@H]1[C@@H]2CC[C@@]2(C)[C@H]1CC[C@]2(C)O` ; wanted: its GLUCOSE
Resp: 152.67

* * *

- Species: Rattus norvegicus
- MEASUREMENT_DESCRIPTION: DrugMatrix - Regimen: Daily Repeat
- Type: toxicity, organism-based, Sprague-Dawley
- Parameters: regimen Daily Repeat, gender Male, age 6-8 weeks
- CONDITION_DESCRIPTION: in vivo, po, 0 mg/kg, 120 h, tissue Plasma, route oral GAVAGE, dose level Control, time 5 day, vehicle 100 % WATER
Each entry below carries its reported TOTAL BILIRUBIN.

Below are worked cases with known answers.
{"COMPOUND": "COc1cccc(C2(O)CCCCC2CN(C)C)c1 (stereo not given)", "TOTAL BILIRUBIN": "0.13 mg/dL"}
{"COMPOUND": "CN1CCC[C@H]1c1cccnc1", "TOTAL BILIRUBIN": "0.22 mg/dL"}
{"COMPOUND": "CC1COc2c(N3CCN(C)CC3)c(F)cc3c(=O)c(C(=O)O)cn1c23 (stereo not given)", "TOTAL BILIRUBIN": "0.22 mg/dL"}
{"COMPOUND": "COc1cc2c(N3CCN(C(=O)Nc4ccc(OC(C)C)cc4)CC3)ncnc2cc1OCCCN1CCCCC1", "TOTAL BILIRUBIN": "0.55 mg/dL"}

Moving on to another compound below.
Req: Look up TOTAL BILIRUBIN for this compound: `NCC1(CC(=O)O)CCCCC1`
Resp: 0.2 mg/dL

* * *

- Organism: Rattus norvegicus
- MEASUREMENT_DESCRIPTION: DrugMatrix - Regimen: Daily Repeat
- Assay type: toxicity, organism-based, Sprague-Dawley
- Parameters: regimen Daily Repeat, gender Male, age 6-8 weeks
- CONDITION_DESCRIPTION: in vivo, po, 0 mg/kg, 72 h, tissue Plasma, route oral GAVAGE, dose level Control, time 3 day, vehicle .5 % CMC
Could you please mark true for values of ALANINE AMINOTRANSFERASE below 50 u/L and false for values at or above it?

{"COMPOUND": "Brc1ccccc1", "LABEL_VALUE": "true"}

Req: # check: ALANINE AMINOTRANSFERASE < 50 u/L for CCc1cccc2c3c([nH]c12)C(CC)(CC(=O)O)OCC3 (centres undefined)
Resp: true

Req: Given the entry `NCC(=O)O` , would its reported ALANINE AMINOTRANSFERASE be below 50 u/L?
Resp: true

Req: # TODO verify ALANINE AMINOTRANSFERASE < 50 u/L strictly for this compound: `COC(=O)c1ccc(O)cc1`
Resp: false

Req: Is ALANINE AMINOTRANSFERASE of `C[C@]12CCC(=O)C=C1CC[C@@H]1[C@@H]2C(=O)C[C@@]2(C)[C@H]1CC[C@]2(O)C(=O)CO` strictly below 50 u/L?
Resp: true

Req: Item `CC(/C=C1\SC(=S)N(CC(=O)O)C1=O)=C\c1ccccc1` : ALANINE AMINOTRANSFERASE beneath 50 u/L, strictly?
Resp: false

Req: Is ALANINE AMINOTRANSFERASE of COc1c(C)c2c(c(O)c1C/C=C(\C)CCC(=O)OCCN1CCOCC1)C(=O)OC2 [MYCOPHENOLATE MOFETIL] strictly below 50 u/L?
Resp: false

Req: Hello, is ALANINE AMINOTRANSFERASE of the following compound strictly smaller than 50 u/L? `O=c1[nH]cc(F)c(=O)[nH]1`
Resp: false

Req: In plain terms, does `O=C1CCc2cc(OCCCCc3nnnn3C3CCCCC3)ccc2N1` come in under 50 u/L for ALANINE AMINOTRANSFERASE?
Resp: true

Req: Find out if reported ALANINE AMINOTRANSFERASE for `CN1CCC[C@@H]1CCO[C@](C)(c1ccccc1)c1ccc(Cl)cc1` is less than 50 u/L
Resp: false

Req: Hello, I'm reviewing records and need to know if ALANINE AMINOTRANSFERASE of `C=C1CC[C@H](O)C/C1=C/C=C1\CCC[C@]2(C)[C@@H]([C@H](C)/C=C/[C@H](C)C(C)C)CC[C@@H]12` is below 50 u/L. Could you check?
Resp: true

Req: Quick check: ALANINE AMINOTRANSFERASE of `CN1C(C(=O)Nc2ccccn2)=C(O)c2ccccc2S1(=O)=O` under 50 u/L?
Resp: true

Req: Take the compound CCc1ccc(C(=O)C(C)CN2CCCCC2)cc1 (centres undefined) and say whether its ALANINE AMINOTRANSFERASE is less than 50 u/L.
Resp: true

Req: Field: below-cutoff. Rule: recorded ALANINE AMINOTRANSFERASE strictly less than 50 u/L. Subject: CC1(C)[C@H]2CC[C@]1(C)C(=O)C2 [(-)-CAMPHOR]
Resp: true

Req: API: query returns whether the compound falls strictly under 50 u/L in ALANINE AMINOTRANSFERASE. Query: `CC[C@H]1OC(=O)[C@H](C)[C@@H](O[C@H]2C[C@@](C)(OC)[C@@H](O)[C@H](C)O2)[C@H](C)[C@@H](O[C@@H]2O[C@H](C)C[C@H](N(C)C)[C@H]2O)[C@](C)(O)C[C@@H](C)/C(=N\OCOCCOC)[C@H](C)[C@@H](O)[C@]1(C)O`
Resp: true

Req: Given the entry CCOC(=O)OC(C)OC1=C(C(=O)Nc2ccccn2)N(C)S(=O)(=O)c2ccccc21 (centres undefined) , would its reported ALANINE AMINOTRANSFERASE be below 50 u/L?
Resp: true

Req: I'd appreciate it if you could check whether Cc1c(-c2ccccc2)oc2c(C(=O)OCCN3CCCCC3)cccc2c1=O [FLAVOXATE] has ALANINE AMINOTRANSFERASE smaller than 50 u/L.
Resp: false
